tested on: 521955-158-R2-J5-PDC complex spheroid viability; experiment: Anticancer human tumor 521955-158-R2-J5-PDC patient-derived pancreatic carcinoma cell line growth inhibition [GQUAD]; conditions: second compound 1 µM; first compound 0.1 µM; stronger effect = lower value;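 note: spheroids exposed to agents for one week before reading; 100% = DMSO vehicle control viability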
readout_name: viability, T/C (%)
Please respond with the number in % and leave the unit unwritten.

Record excerpt, results attached:
- compound: "C=CC(=O)N1CCN(c2nc(=O)n(-c3c(C)ccnc3C(C)C)c3nc(-c4c(O)cccc4F)c(F)cc23)C(C)C1 (configuration not stated) + Cc1cnc(CNC(=O)c2c(=O)c3ccc(N4CCCN(C)CC4)nc3n3c2sc2ccccc23)cn1"
  result: 20.2
- compound: "Nc1ccn(C2OC(CO)C(O)C2(F)F)c(=O)n1 (configuration not stated) + Cc1cnc(CNC(=O)c2c(=O)c3ccc(N4CCCN(C)CC4)nc3n3c2sc2ccccc23)cn1"
  result: 19.9
- compound: "C=CCn1c(=O)c2cnc(Nc3ccc(N4CCN(C)CC4)cc3)nc2n1-c1cccc(C(C)(C)O)n1 + Cc1cnc(CNC(=O)c2c(=O)c3ccc(N4CCCN(C)CC4)nc3n3c2sc2ccccc23)cn1"
  result: 19.6
- compound: "CCCS(=O)(=O)Nc1ccc(F)c(C(=O)c2c[nH]c3ncc(-c4ccc(Cl)cc4)cc23)c1F + Cc1[nH]c2ccc(F)cc2c1-c1nc2c3cccnc3c3ncccc3c2[nH]1"
  result: 88.6
- compound: "Cc1cccc(N(C)C(=O)C2C(O)CCN2c2nc(C)cc(C(F)(F)F)c2C#N)c1 (configuration not stated) + Cc1[nH]c2ccc(F)cc2c1-c1nc2c3cccnc3c3ncccc3c2[nH]1"
  result: 100

Q) Record request: viability, T/C value, item CC1COCCN1c1cc(-c2ccnn2C)c2ccnc(-c3ccn[nH]3)c2n1 (configuration not stated) + Cc1cnc(CNC(=O)c2c(=O)c3ccc(N4CCCN(C)CC4)nc3n3c2sc2ccccc23)cn1
A) 14.2

Q) Record request: viability, T/C value, item COc1cccc2c1C(=O)c1c(O)c3c(c(O)c1C2=O)CC(O)(C(=O)CO)CC3OC1CC(N)C(O)C(C)O1 (configuration not stated) + CN(C)c1ccc(Nc2c3ccc(NC(=O)CCN4CCCC4)cc3nc3cc(NC(=O)CCN4CCCC4)ccc23)cc1
A) 67.9

Values from PubChem BioAssay AID2060495
